assay comment: soluble on expression in E. coli; label from the status in PepcDB or PDB records
test readout: soluble on expression in E. coli

[[record]]
sequence_chain = "MKDTVMMKLNTKESMAQIDGQTIYFKQIGEGKPPLLMLHGFGGSSDGFSDIYPELARDHTIIAVDILGFGRSSKPVDFQYSFPAQVNLYYKLMKKLGYNQFAVLGHSMGGEMSLNLAYLYPDAVTHLILADATGIESFQQKESYEVPPLSTDLQTVTEITKYNKNEVKNSRDDKEHYDQLTKMRERRIAMEADKIKVPTLIIWGRHDKSVSWKNGELYHGLFANSTFHIIEKGYHAPFRQEPIEFMEYVQAFFAKHPQ"
test_readout = "soluble on expression in E. coli"
test_result = "not soluble"

[[record]]
sequence_chain = "MDYYYSLISPPCQSAILLAKKLGITLNLKKTNVHDPVERDALTKLNPQHTIPTLVDNGHVVWESYAIVLYLVETYAKDDTLYPKDPKVRSVVNQRLFFDIGTLYKRIIDVIHLVMKKEQPSDEQMEKLKGALDLLEQFVTERAYAAADHLTVADICLLGTVTALNWLKHDLEPFPHIRAWLERVRAEMPDYEEFSKQVADDTLAYVASRK"
test_readout = "soluble on expression in E. coli"
test_result = "soluble"

[[record]]
sequence_chain = "GSHMKITYPLPPNLPEQLPLLTNCQLEDEAILENHLYQQIDLPNQEVRNLVFRDAVFDHLSLANGQFASFDCSNVRFEACDFSNVEWLSGSFHRVTFLRCNLTGTNFADSYLKDCLFEDCKADYASFRFANFNLVHFNQTRLVESEFFEVTWKKLLLEACDLTESNWLNTSLKGLDFSQNTFERLTFSPNYLSGLKVTPEQAIYLASALGLVIT"
test_readout = "soluble on expression in E. coli"
test_result = "soluble"

[[record]]
sequence_chain = "MTGQPSTPVRPGSVVRTVRRHRGGRSATVQDMVAAEMPVAFNYNGVPFAVMMATPEDLEDFALGFSLSEGIVDHPQDLRVVAVDTFLEGASLQIEIPPERAAALDQRRRNLDGRSGCGVCGNESIEAVLRVPPVLQSALRIDVDALARALDALHARQPIAAQTGAVHAAGWADAQGMVQLVREDVGRHNALDKLIGALARARVDATQGFAVVTSRASYEMAMKAAQARIPLLAAISAPTALAISLADSAGLTLIGFARDHDCVVYSHPQRLDLGVAVGEPALEHHHHHH"
test_readout = "soluble on expression in E. coli"
test_result = "not soluble"

[[record]]
sequence_chain = "MQMKRTAFFISDGTGITAETLGQSLLAQFENISFVKLTRPYIDTEEKARAMVQQINNAAESDGARPIIFDTIVNRDIRAVLAQSNGFMIDIFATFLSPLEQELSADSSYSVGKSHSIGHNSNYMDRIEAVNFALDNDDGARTHYYDKADLILVGVSRCGKTPTCLYMALQYGIRAANYPLTEEDMERLQLPNALKQYKHKLFGLTIDPDRLTAIRNERKPNSRYASFAQCEFEVREVESLFRRENIAYINSTHFSVEEISAKILVEKGVERRFKLEHHHHHH"
test_readout = "soluble on expression in E. coli"
test_result = "not soluble"


Now look at this one.
// MVLADGELTVLGRIRSASNATFLCESTLGLRSLHCVYKPVSGERPLWDFPDGTLAGRELSAYLVSTQLGWNLVPHTIIRDGPAGIGMLQLWVQQPGDAVDSDPLPGPDLVDLFPAHRPRPGYLPVLRAYDYAGDEVVLMHADDIRLRRMAVFDVLINNADRKGGHILCGIDGQVYGVDHGLCLHVENKLRTVLWGWAGKPIDDQILQAVAGLADALGGPLAEALAGRIAAAEIGALRRRAQSLLDQPVMPGPNGHRPIPWPAFLEHHHHHH : soluble on expression in E. coli value = not soluble

----------
assay comment: soluble on expression in E. coli; label from the status in PepcDB or PDB records
test readout: soluble on expression in E. coli

[[record]]
sequence_chain = "MGSDKIHHHHHHMCRLIGYLGNAIPLDELLYKQEHSLYQQSYSPLELKSGVVCADGVGVGWYDQVGKPFIYRNTIPMWNDPNLEELSNYVQSTCTVGYARLAGIGESLDISNCQPFRSDQLLFVHNGEISNFQQTLYRPIRESLSDATYRLIKGTTDSEHIFALLVQMWQSSPDSTLFWALGATLEKLTELASEYNTSFSANLIVSDGEAIAAIRYAYRTQAPTLYWSYDALKHPNQVIVASEPLSNNQNWTAFDEQSMLFFQAQSLEPRISLLKKFSAIGV"
test_readout = "soluble on expression in E. coli"
test_result = "not soluble"

[[record]]
sequence_chain = "MGSDKIHHHHHHMKSYKNYIFDFYGTLVDIRTDENKLEVWNQLTQIYNAFGCSYRPRQLKNAYHRFVEEAERFLAETVSYQYVEIDLETLFIRLLTDAPNENQSTNKPTDLETFGQVVATIFRVLSREKLEAYENTLTSLQTLAARAARLFILSNAQRIFTQAEIEQTGCADLMEKIYISSDFKMKKPEPAFLQLVLEENNLDVKETVMVGNDLTSDIAIAHELGMDSILLNTFPYSQEEIDSYRRLGWNFEVVGDIAELL"
test_readout = "soluble on expression in E. coli"
test_result = "not soluble"


----------
assay comment: soluble on expression in E. coli; label from the status in PepcDB or PDB records
test readout: soluble on expression in E. coli

[[record]]
sequence_chain = "MGSDKIHHHHHHMQSALWVSKTGLAAQDTKMTTIANNLANVNTTGFKRDRVAFNDLFYQVQRQPGGQVDELNQLPSGLQLGTGTRVAGTQKVFTTGDVHNTSQQLDLAIEGNGFFQVEEPNGDLAYTRDGQFYRSSEGMMVTSQGLPLVPNIVIPEDSTNITIATDGIVMATIAGDAEPQELGQITLINFTNPAGLEARGNNLYRETAASGVAVEGVAGDQALGGLRQGSLEGSNVNVVEEMVEMISTQRAYEMNAKVVSASDDMLKFLNQSV"
test_result = "not soluble"

[[record]]
sequence_chain = "MDTQDPLSQKYAISMLFFLLDRGNVKQFELLKIISSNMTIEKLSKILEEAGLINIKREFTGRKSYSFSLTPKGRLVAEQLKKAEEIAQKPSAEIEESVEKIELLLANEEAERIREWSFLLHINIMDDHITEEISGKSPRFFNIYIKRNGNGEFLLWCEQDNSYDCWHVKAAWTYPEVQKMMMHYKGKVKICHICGYENAEEGKFCTNCGTKLE"
test_result = "not soluble"


----------
assay comment: soluble on expression in E. coli; label from the status in PepcDB or PDB records
test readout: soluble on expression in E. coli

[[record]]
sequence_chain = "MLDKNVLNEIGSKVNEILASSPARDVEKNMRAMLTGAFARLDLVTREEFDVQQEVIKRTRIKLAELEEKVRKLEQQLQQPAEVVSSNETGDA"
test_result = "not soluble"

[[record]]
sequence_chain = "MLVSKSNGFNASAVLGSGSYNENKSSKHMELLAHSILKLICKEAASETYRGALETLQKMMSECIYQEGNAFVIMGAGEQLKRIKYEVGENNLKVFNVHFNNNHELVSSGEPDVICLSKQVWENLLIKLKLENNENVFSETKKLSNKNNADQFFECAKRNE"
test_result = "not soluble"

[[record]]
sequence_chain = "MGSDKIHHHHHHMLGENIYLQRTQIGMTQENLSDYLHLTKTTISKWENNQAKPDIDYLILMANLFDISLDDLVGYQKTLSDDQRNQLIKDLKIKANVLSERDFFQEVKELSKQFPNDFKTLLIMINMVLSNLTNLNDSEMKEWSLSTLNKIISKTVVESDLQTAIMFKTVVLFHNLEYDEVINLYQNSPYKLGEELLLANSFFAKVDVYRAKQVLQVEIYQQILLVCEYLLSLSTFEVEENKGDIFERLEHMIEAFQLNSLHPNTVIKCYYSLACHYSKSDDDKALGYLKQCFKSLKQLLQRFELHGDTFFYTIDDWLETIPTGIAPPTSQLQVIERVEDLFQNSQFKELSGHKEFQQMIQKLNDLKKDY"
test_result = "not soluble"


----------
assay comment: soluble on expression in E. coli; label from the status in PepcDB or PDB records
test readout: soluble on expression in E. coli

Take a look at these entries with their results.
[[record]]
sequence_chain = "MGSDKIHHHHHHMNMPNSFSNSHIYLGNVMHRRFSPKKHSFDYRLFMLALDVADVEKAQGGFGVFGFSWYRPLRFVETDYLKESIKDNSKDNLAGDPRSLSHRIKNKVHELAGYADIKRIVMLVQVRCFGIYFSPANFYFCYDQDDKCTQMLAEVSNTPWNERHYYLVDLLKEEGDKTTKKMFQVSPFMDLAMTYFWQVTPPCNGNDKLLVKIENKRVNDESGTVSKLFDASLVMRRKPFTKASLLRIWGQLPVMTMKVVVTIYWQALKLFIKRVPFIGYQKPS"
test_result = "not soluble"

[[record]]
sequence_chain = "GSSANDWQCKTCSNVNWARRSECNMCNTPKYAK"
test_result = "soluble"

[[record]]
sequence_chain = "MSLTDVEEQQLTVLKDPNCGCCEKWLQALPDSFSVSVQHPNNLTQRKRDSGISAEVQSCHTAISSNGYVFEGHVPPTLVSHYLAGKKSENGIGLTVPGMPVGSVGMEMGTRFQPYTVYEIKKDGSITPYQQIASLEQQQALSNEGLEGHHHHHH"
test_result = "soluble"

[[record]]
sequence_chain = "MGSDKIHHHHHHMVSPVVARIIELLPDSCVGFIGKRILNMYLNKYADINVHGMENLKGIDKPIMFIGNHLSNSDGLVLNKVLKDYDVTFVAGVKLKGDAITNLGTYCVKTTEIKPNTADKDGIYRVIDILKSNHNILMFPEGTRSRTGAMIEAKRGPLFIAKLSKAIIVPVGICGSEKLLPINKEGNMSNENFHHAKVEVNIGKPFYFDKRMKEESKKDYEKRALDNAMYKIAELIPENYRGVYSDIKKVL"
test_result = "not soluble"

[[record]]
sequence_chain = "MSLDRPRCCLRGKECSINRFQQVESRWGYSGTSDRIRFSVNKRIFVVGFGLYGSIHGPTDYQVNIQIIHTDSNTVLGQNDTGFSCDGSASTFRVMFKEPVEVLPNVNYTACATLKGPDSHYGTKGMRKVTHESPTTGAKTCFTFCYAAGNNNGTSVEDGQIPEVIFYTEGHHHHHH"
test_result = "soluble"

[[record]]
sequence_chain = "MFTPIDQAIEHFKQNKFVIVMDDAGRENEGDLICAAENVSTEQMAFLVRHSSGYVCAPMTNAIADKLDLPLLRTGMKFESNDDDRHGTAYTITVDVAQGTTTGISAHDRSMTCRALADSSSTPKSFLKPGHICPLRAADGGVLQRRGHTEAGVDLCKLSGLSPVAVIGELVNDDEQGTMMRLNDCQAFGKKHGIPLISIEELAQYLKK"
test_result = "soluble"

[[record]]
sequence_chain = "GSHMHAKVGDYLVVKGTTTERHDQHAEIIEVRSADGSPPYVVRWLVNGHETTVYPGSDAVVVTATEHAEAEKRAAARAGHAAT"
test_result = "soluble"


// MSLLITAGVIALGFNFKRFQNEYDWLTLKPEQKLNVPLVNQLPDLPNGCEVTSLAMLLKYYDINVSKLELSSNIKHVSSFVGNNYRGNPHVGFVGYMSIKNAGWCVYNEPLYNVARKYTKRIRNYTGNDFVQVLKLVSKRHPVVIITTLKFDRVNDMQTWSTKQGKVHVTPSSHACVITGYNKKKGIVYVNDPYGVKNKKVSLKKIEASYNQQGKQALYIEEGHHHHHH : soluble on expression in E. coli value = soluble
